kon values, listed per item
# MEASURED ON: T1, recombinant human aggregated full-length TDP-43 (human, UniProt Q13148 1-414)
# T1 construct: also called aggregated TDP-43; aggregated FL TDP-43
# TEST NAME: SPR, immobilized aggregated TDP-43

[
  {
    "BINDER": "ACI-7071-809F12-Ab1 (antibody, mouse IgG2b, V domains shown, Mouse IgG2b, kappa, from hybridoma; also called 809F12D8) VH: QVQLKESGPGLVAPSQSLSITCTVSGFSLNRNGVQWVRQPPGKGLEWLGVIWPGGSTNCNSALMSRLSISKDNSKSQVFLKMNSLHTDDTGIYYCARVGGNYVWDYNNYAWGQGTLVTVSA VL: DVLMTQTPLSLPVSLGDQASISCRSSQNIVHSIGNTYLEWYLQKPGQSPKLLIYKVSNRFSGVPDRFSGSGSGTDFTLKISRVEAEDLGVYYCFQGSHVPYTFGGGTKLEIR",
    "kon": "94700 M⁻¹ s⁻¹"
  },
  {
    "BINDER": "ACI-7069-636E5-Ab1 (antibody, mouse IgG2b, V domains shown, Mouse IgG2b, lambda, from hybridoma; also called 636E5B8) VH: EVHLVESGGDLVMPGGSLKLSCAASGFTFSNYGMSWVRQTPDKRLEWVATISSGGKYINYLDSLKGRFTISRDNAKNTLYLQMSSLKSEDTAMYYCAKDYGSGWAWFAYWGQGTLVTVSA VL: QLVLTQSSSASFSLGASAKLTCTLSSQHSTYTIEWYQQQPLKPPKYVMELKKDGSHSTGDGIPDRFSGSSSGADRYLSISNIQPEDEAIYICGVGDTIKEQFVYVFGGGTKVTVL",
    "kon": "113000 M⁻¹ s⁻¹"
  },
  {
    "BINDER": "ACI-7069-642D12-Ab1 (antibody, mouse IgG2b, V domains shown, Mouse IgG2b, kappa, from hybridoma; also called 642D12B4) VH: EVQLQQSGAELVKPGASVRLSCTASGFNIKDPYMHWVRQRPKQGLEWIGRIDPADGNTKYDPKFQGKATLTADTSSNVAYLHLSSLTSEDTAVYYCARFYGSSHWYFDVWGAGTTVTVSS VL: DIKMTQSPSSMYASLGERVTITCKASQDIKRYLSWYQQKPWKSPKILIYYATSLADGVPSRFSGTGSGQDYSLTISSLESDDVATYYCLQQGESPYTFGGGTKLEIK",
    "kon": "148000 M⁻¹ s⁻¹"
  }
]
